The reported measurements were obtained from patent US20110262445A1.

# SYSTEM: T1, human IL-23 (human, UniProt P29460 23-328; Q9NPF7 20-189)
# T1 construct: Recombinant (Ebioscience); HIS-tagged in flow cytometry, biotinylated in some assays; also called hIL-23; rhIL-23
# T1 sequence 1: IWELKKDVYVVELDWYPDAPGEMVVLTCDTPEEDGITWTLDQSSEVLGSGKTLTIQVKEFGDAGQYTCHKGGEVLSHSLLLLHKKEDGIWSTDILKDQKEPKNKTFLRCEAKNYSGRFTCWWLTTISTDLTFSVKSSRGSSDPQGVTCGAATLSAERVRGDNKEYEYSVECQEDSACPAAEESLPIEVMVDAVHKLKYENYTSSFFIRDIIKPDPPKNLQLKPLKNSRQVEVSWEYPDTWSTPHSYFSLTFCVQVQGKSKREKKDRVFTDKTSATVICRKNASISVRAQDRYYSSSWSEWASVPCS
# T1 sequence 2: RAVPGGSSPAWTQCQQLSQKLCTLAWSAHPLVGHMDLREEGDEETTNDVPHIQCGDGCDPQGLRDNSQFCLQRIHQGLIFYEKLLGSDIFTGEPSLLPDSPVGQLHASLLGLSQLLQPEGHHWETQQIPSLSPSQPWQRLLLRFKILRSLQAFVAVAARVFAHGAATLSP
# ASSAY TEXT: SPR, IgG on Protein A
Hi there, I'd appreciate the recorded koff for every entry that follows.
Quick note: give the figure in s⁻¹, leave out the unit.

Given Antibody 177 (antibody, human IgG1, kappa, V domains shown) VH: EVQLVQSGAEVKKPGATVKISCKASGYTFSDYYLHWVRQAPEKGLEWMGWIDPENGDTESAPKFQGRVTITADTSTDTGYLELSSLRSEDTAVYYCAANKELRYFDVWGQGTLVTVSS VL: DIQMTQSPSSVSASVGDRVTITCRASQSISINLHWYQQKPGKAPKLLIYFASQSISGVPSRFSGSGSGTDFSLTINSLQTEDFATYYCQQSNSFPLTFGGGTKVEIKR , respond with its koff.
0.000128

Let me know recorded koff for Antibody 182 (antibody, human IgG1, kappa, V domains shown) VH: EVQLVQSGAEVKKPGATVKISCKASGYTLSDYYLHWVRQAPEKGLEWMGWIDPENGDTEHAPKFQGRVTITADTSTDTGYLELSSLRSEDTAVYYCAANKELRYFDVWGQGTLVTVSS VL: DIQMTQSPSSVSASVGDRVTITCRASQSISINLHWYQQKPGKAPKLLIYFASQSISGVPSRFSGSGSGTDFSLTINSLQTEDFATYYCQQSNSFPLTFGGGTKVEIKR , thanks.
0.000129

Indicate the recorded koff value for this binder: Antibody 198 (antibody, human IgG1, kappa, V domains shown) VH: QVQLVQSGAEVKKPGASVKVSCKASGYAFTDYYLHWVRQAPGQGLEWMGWIDPENGDTEYAPKFQGRVTMTTDTSTSTAYMELRSLRSDDTAVYYCAANKELRYFDVWGQGTMVTVSS VL: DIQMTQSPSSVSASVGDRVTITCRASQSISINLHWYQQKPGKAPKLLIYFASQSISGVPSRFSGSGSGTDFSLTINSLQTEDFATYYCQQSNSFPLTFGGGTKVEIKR
0.000409
